These data points were gathered from ChEMBL document CHEMBL1201862.

# Test system: MDA-N
# method-notes: NCI tumour cell line growth inhibition, 48 h
Activity calls are given as the source filed them. Cut-off read from the data, not from the text of the source: active = GI50 up to about 1.1 µM and inactive = higher.
Your answer must be one of the following: true for active, false for inactive

Worked set:
CC1=CC(=O)N(n2c(C)n[nH]c2=O)C1=O | false
O=C1OC2(c3ccc(O)cc3Oc3cc(O)ccc32)c2c1c(-c1ccccc1)c(-c1ccccc1)c(-c1ccccc1)c2-c1ccccc1 | false
CCCCCCCCCCCCCCCCNc1ccc2c(c1)OCCOCCOCCOCCO2 | false
CC[C@H]1C=CCC[C@@]2(C[C@@H]3CC[C@@H]4[C@H](C(=O)OCCCCCCCCCCCCCCCC(=O)O)[C@]5(CCC[C@@H](C)O5)NC(=[N+]34)N2)O1 [CRAMBESCIDIN 657] | true
Cc1cc(Cl)ccc1NC(=O)/C(Cl)=C(/Cl)C(=O)O | false
COc1ccccc1Cn1c2c(c3cc(O)ccc31)C(=O)c1ccccc1C2=O | false

In the following, a different compound is considered.
Which outcome was entered for the compound NCCC(=O)N[C@H](Cc1cc(O)c(O)c(SCC(NC(=O)CC[C@H](N)C(=O)O)C(=O)NCC(=O)O)c1)C(=O)O (stereo partly specified) in this test?
false
